# System: CCRIS mutagenicity, Ames/micronucleus/aberration tests
# TEST DETAILS: CCRIS mutagenicity studies
# TEST CONDITIONS: Test System: AMES SALMONELLA TYPHIMURIUM; Strain/Indicator: TA100; Metabolic Activation: NONE; Method: STANDARD PLATE
Active and inactive are the calls of the source. No rule for the calls is given here.
READOUT KIND: mutagenic call

>>> df
                                    compound                                       tgt    readout_kind  recorded_measurement
 0                                N#CC(Cl)Cl  CCRIS mutagenicity, Ames/micronucleus/aberration tests  mutagenic call      active; positive
 1                       CCc1c(N)ccc2ccccc12  CCRIS mutagenicity, Ames/micronucleus/aberration tests  mutagenic call    inactive; negative
 2  CC1(C)CCC[C@]2(C)[C@@H](C=O)C(C=O)=CC[C@@H]12  CCRIS mutagenicity, Ames/micronucleus/aberration tests  mutagenic call    inactive; negative
 3      O=C1c2cccc(O)c2C(=O)c2c(O)cc(CO)cc21  CCRIS mutagenicity, Ames/micronucleus/aberration tests  mutagenic call    inactive; negative
 4  CC(=O)Nc1ccc(OCC(O)CNC(C)C)cc1 (centres undefined)  CCRIS mutagenicity, Ames/micronucleus/aberration tests  mutagenic call    inactive; negative
 5  COc1cc2c(c(OC)c1OC)-c1ccc(OC)c(=O)cc1[C@@H](NC(C)=O)CC2  CCRIS mutagenicity, Ames/micronucleus/aberration tests  mutagenic call    inactive; negative
 6  CCC1C(C)=NN=C(c2ccc(OC)c(OC)c2)c2cc(OC)c(OC)cc21 (centres undefined)  CCRIS mutagenicity, Ames/micronucleus/aberration tests  mutagenic call    inactive; negative
 7                               ON=C1CCCCC1  CCRIS mutagenicity, Ames/micronucleus/aberration tests  mutagenic call    inactive; negative
 8                          N#C[Se]Cc1ccccc1  CCRIS mutagenicity, Ames/micronucleus/aberration tests  mutagenic call      active; positive
 9          CN(C)CC/C=C1\c2ccccc2COc2ccccc21  CCRIS mutagenicity, Ames/micronucleus/aberration tests  mutagenic call    inactive; negative
10                         CC(C)COS(C)(=O)=O  CCRIS mutagenicity, Ames/micronucleus/aberration tests  mutagenic call      active; positive
11                  C/C=C/C=C/CCCCCCCOC(C)=O  CCRIS mutagenicity, Ames/micronucleus/aberration tests  mutagenic call    inactive; negative
12                O=C(CCl)Nc1snc2cc(Cl)ccc12  CCRIS mutagenicity, Ames/micronucleus/aberration tests  mutagenic call      active; positive
13     CN(C)c1ccc2nc3ccc(=[N+](C)C)cc-3sc2c1  CCRIS mutagenicity, Ames/micronucleus/aberration tests  mutagenic call      active; positive

====

# Tested on: CCRIS mutagenicity, Ames/micronucleus/aberration tests
# TEST DETAILS: CCRIS mutagenicity studies
# TEST CONDITIONS: Test System: AMES SALMONELLA TYPHIMURIUM; Strain/Indicator: TA100; Metabolic Activation: S-9; Method: PREINCUBATION
The source made the active and inactive calls. How the calls were made is not given here.
Outcomes: active, inactive

>>> print(df.to_string())
                            chemical_string  qualitative_label
0                          COc1cccc2cccnc12           inactive
1                     Nc1cccc(S(=O)(=O)O)c1           inactive
2                               C/C=C/C=C/C           inactive
3                  NS(=O)(=O)c1cccc2cccnc12           inactive
4                     CC(=O)Oc1cccc2cccnc12           inactive
5                                  CN(C)N=O           inactive
6  O=C1CN(CCN2CC(=O)N(CN3CCOCC3)C(=O)C2)CC(=O)N1CN1CCOCC1           inactive
7                     CC(=O)Nc1cccc2cccnc12             active

====

# Tested on: CCRIS mutagenicity, Ames/micronucleus/aberration tests
# TEST DETAILS: CCRIS mutagenicity studies
# TEST CONDITIONS: Test System: AMES SALMONELLA TYPHIMURIUM; Strain/Indicator: TA2637; Metabolic Activation: NONE; Method: STANDARD PLATE
Activity calls are given as the source filed them. The rule behind the calls is not given here.
Outcome codes: 1 = active, 0 = inactive

                                   compound  qualitative_label
0  CC(=O)O[C@H]1[C@@H]2CC(C)(C)CC2=C(C=O)[C@]2(C=O)C[C@]12C                  0
1  CC1=CC(C=O)C(C=O)=C[C@@H]2CC(C)(C)C[C@H]12 (some centres undefined)                  0
2                      O=C/C(Br)=C/c1ccccc1                  1
3  CC1(C)CCC[C@]2(C)[C@@H](C=O)C(C=O)=CC[C@@H]12                  0

====

# Test system: CCRIS mutagenicity, Ames/micronucleus/aberration tests
# TEST DETAILS: CCRIS mutagenicity studies
# TEST CONDITIONS: Test System: AMES SALMONELLA TYPHIMURIUM; Strain/Indicator: TA100; Metabolic Activation: NONE; Method: STANDARD PLATE
Activity calls are given as the source filed them. How the calls were made is not given here.
Labels: True (active), False (inactive)

>>> df
                            chemical_string  qualitative_label
0       OC(c1ccc(Cl)cc1)(c1ccc(Cl)cc1)C1CC1              False
1    c1ccc2c(c1)-c1ccc3ccc4cccc5cc-2c1c3c45              False
2   COc1cccc(NC(=O)c2csc([N+](=O)[O-])c2)c1               True
3  C=C1/C(=C\C=C2/CCC[C@]3(C)[C@@H]([C@H](C)CC[C@@H](O)C(C)C)CC[C@@H]23)C[C@@H](O)C[C@@H]1O              False
4                    CC(C)(S)[C@H](N)C(=O)O               True
5                [Pt+2].[S-]CCCCl.[S-]CCCCl               True

====

# Test system: CCRIS mutagenicity, Ames/micronucleus/aberration tests
# TEST DETAILS: CCRIS mutagenicity studies
# TEST CONDITIONS: Test System: AMES SALMONELLA TYPHIMURIUM; Strain/Indicator: TA1535; Metabolic Activation: NONE; Method: PREINCUBATION
Active and inactive are the calls of the source. How the calls were made is not given here.
Outcome codes: yes (1) (active), no (0) (inactive)

>>> print(df.to_string())
                                    compound                                       tgt  qualitative_label
 0                  CN1C(=O)CC[C@H]1c1cccnc1  CCRIS mutagenicity, Ames/micronucleus/aberration tests             no (0)
 1                      O=C(O)CCCCCCCCC(=O)O  CCRIS mutagenicity, Ames/micronucleus/aberration tests             no (0)
 2                   CCNc1nc(Cl)nc(NC(C)C)n1  CCRIS mutagenicity, Ames/micronucleus/aberration tests             no (0)
 3                           Oc1cc(Cl)ccc1Cl  CCRIS mutagenicity, Ames/micronucleus/aberration tests             no (0)
 4                                 OCc1ccco1  CCRIS mutagenicity, Ames/micronucleus/aberration tests             no (0)
 5                                Clc1ccccc1  CCRIS mutagenicity, Ames/micronucleus/aberration tests             no (0)
 6  O=C(Nc1cccc2c(=O)c3c(ccc4c5cc(NC(=O)c6ccccc6)c6c(=O)c7ccccc7c(=O)c6c5[nH]c43)c(=O)c12)c1ccccc1  CCRIS mutagenicity, Ames/micronucleus/aberration tests             no (0)
 7    CCCCCCCCCCCCOCC1CO1 (stereo not drawn)  CCRIS mutagenicity, Ames/micronucleus/aberration tests             no (0)
 8                                   CC(C)=O  CCRIS mutagenicity, Ames/micronucleus/aberration tests             no (0)
 9  Cc1ccc(S(=O)(=O)Oc2ccc(N=Nc3ccc(-c4ccc(N=Nc5c(O)ccc6cc(S(=O)(=O)O)cc(S(=O)(=O)O)c56)c(C)c4)cc3C)cc2)cc1  CCRIS mutagenicity, Ames/micronucleus/aberration tests             no (0)
10                                      O=NO  CCRIS mutagenicity, Ames/micronucleus/aberration tests            yes (1)
11        CC(O)COC(C)(C)C (stereo not drawn)  CCRIS mutagenicity, Ames/micronucleus/aberration tests             no (0)
12                          COC(=O)CCC(=O)OC  CCRIS mutagenicity, Ames/micronucleus/aberration tests             no (0)
13                                 CCCCCCCCC  CCRIS mutagenicity, Ames/micronucleus/aberration tests             no (0)
14      O=C(O)CN(CCN(CC(=O)O)CC(=O)O)CC(=O)O  CCRIS mutagenicity, Ames/micronucleus/aberration tests             no (0)
15         Clc1cccc(-c2ccc(Cl)c(Cl)c2Cl)c1Cl  CCRIS mutagenicity, Ames/micronucleus/aberration tests             no (0)
16  O.O.O.O.O.O.O=[N+]([O-])O.O=[N+]([O-])O.[Zn]  CCRIS mutagenicity, Ames/micronucleus/aberration tests             no (0)
17                         CCCCO[C@@H](CC)CO  CCRIS mutagenicity, Ames/micronucleus/aberration tests             no (0)
18                             C=Cc1ccccc1Cl  CCRIS mutagenicity, Ames/micronucleus/aberration tests             no (0)
19         O=[N+]([O-])c1c(O)c(Cl)cc(Cl)c1Cl  CCRIS mutagenicity, Ames/micronucleus/aberration tests             no (0)
20  C=C1C/C(=C/C)C(=O)O[C@@H]2CCN3CC=C(COC(=O)[C@@]1(O)CO)[C@H]23  CCRIS mutagenicity, Ames/micronucleus/aberration tests             no (0)
21                      C=C[Si](OCC)(OCC)OCC  CCRIS mutagenicity, Ames/micronucleus/aberration tests             no (0)
22                                 CCN(CC)CC  CCRIS mutagenicity, Ames/micronucleus/aberration tests             no (0)
23                         CCCCCCCCn1sccc1=O  CCRIS mutagenicity, Ames/micronucleus/aberration tests             no (0)
24                   O=[N+]([O-])c1ccccc1CCO  CCRIS mutagenicity, Ames/micronucleus/aberration tests             no (0)
25                            CCCCCCCCCCCCCO  CCRIS mutagenicity, Ames/micronucleus/aberration tests             no (0)
26                  O=C1NC(=O)C(O)(O)C(=O)N1  CCRIS mutagenicity, Ames/micronucleus/aberration tests             no (0)
27                     Cc1c[nH]c(=S)[nH]c1=O  CCRIS mutagenicity, Ames/micronucleus/aberration tests             no (0)
